Known inhibition of a selection of compounds
Target: Ubiquitin carboxyl-terminal hydrolase isozyme L5 (Homo sapiens)
Experiment: inhibitors of human UCH37 deubiquitinase, primary screen, biochemical, Ub-AMC cleavage, fluorescence (AID 588478);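 further: 0% = compound-free wells with enzyme and 100% = wells lacking proteasome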
Conditions: purified proteasome/UCH37, Ub-AMC cleavage fluorescence; active compounds read high; concentration not given here
Hit rate of the full screen: of about 330,000 compounds, about 1,100 (0.33%) were called active. The sample as a whole holds a higher share of actives than the screen did.
endpoint.name: inhibition (%)

structure_smiles=COc1ccc(C=NNC(=O)CSc2ccccn2)cc1OC tested_system="Ubiquitin carboxyl-terminal hydrolase isozyme L5 (Homo sapiens)" endpoint_name=inhibition readout_unit=% endpoint_result=5.41
structure_smiles=CC(CC(=O)NCCc1ccccc1)=NNC(=O)COc1ccc(Br)cc1 tested_system="Ubiquitin carboxyl-terminal hydrolase isozyme L5 (Homo sapiens)" endpoint_name=inhibition readout_unit=% endpoint_result=3.08
structure_smiles=Nc1nonc1C(=O)NN=Cc1ccc(-c2cccc([N+](=O)[O-])c2)o1 tested_system="Ubiquitin carboxyl-terminal hydrolase isozyme L5 (Homo sapiens)" endpoint_name=inhibition readout_unit=% endpoint_result=9.92
structure_smiles=N#Cc1c2c(c(-c3ccccc3)[nH]c1=O)CCCC2 tested_system="Ubiquitin carboxyl-terminal hydrolase isozyme L5 (Homo sapiens)" endpoint_name=inhibition readout_unit=% endpoint_result=-49.7
structure_smiles=COc1ccc(C(C)=NNc2ccc(C(=O)O)cc2)cc1OC tested_system="Ubiquitin carboxyl-terminal hydrolase isozyme L5 (Homo sapiens)" endpoint_name=inhibition readout_unit=% endpoint_result=12.1
structure_smiles=Cc1ccccc1OCC(=O)NN=C1CCOc2c(C)cccc21 tested_system="Ubiquitin carboxyl-terminal hydrolase isozyme L5 (Homo sapiens)" endpoint_name=inhibition readout_unit=% endpoint_result=-0.822
structure_smiles=CCN1C[C@@H]2[C@@H]3C(=O)N(Cc4ccccc4)C(=O)[C@@H]3[C@](Cc3ccccc3)(C(=O)OC)N2C1=NC1CCCCC1 tested_system="Ubiquitin carboxyl-terminal hydrolase isozyme L5 (Homo sapiens)" endpoint_name=inhibition readout_unit=% endpoint_result=-0.224
structure_smiles=Cn1cc([N+](=O)[O-])c(C(=O)NN=Cc2ccc([N+](=O)[O-])cc2)n1 tested_system="Ubiquitin carboxyl-terminal hydrolase isozyme L5 (Homo sapiens)" endpoint_name=inhibition readout_unit=% endpoint_result=11.9
structure_smiles=Nc1nnnn1N=Cc1cc(Cl)ccc1O tested_system="Ubiquitin carboxyl-terminal hydrolase isozyme L5 (Homo sapiens)" endpoint_name=inhibition readout_unit=% endpoint_result=-10.7
structure_smiles=Cc1nnsc1C(=O)NN=Cc1ccccc1 tested_system="Ubiquitin carboxyl-terminal hydrolase isozyme L5 (Homo sapiens)" endpoint_name=inhibition readout_unit=% endpoint_result=-1.09
structure_smiles=Cc1cc(C)c(COc2ccc(C=Nn3c(C)n[nH]c3=S)cc2)c(C)c1 tested_system="Ubiquitin carboxyl-terminal hydrolase isozyme L5 (Homo sapiens)" endpoint_name=inhibition readout_unit=% endpoint_result=2.64

---

Molecular target: Ubiquitin carboxyl-terminal hydrolase isozyme L5 (Homo sapiens) (UniProt Q9Y5K5)
Sequence (Q9Y5K5 whole entry, looked up): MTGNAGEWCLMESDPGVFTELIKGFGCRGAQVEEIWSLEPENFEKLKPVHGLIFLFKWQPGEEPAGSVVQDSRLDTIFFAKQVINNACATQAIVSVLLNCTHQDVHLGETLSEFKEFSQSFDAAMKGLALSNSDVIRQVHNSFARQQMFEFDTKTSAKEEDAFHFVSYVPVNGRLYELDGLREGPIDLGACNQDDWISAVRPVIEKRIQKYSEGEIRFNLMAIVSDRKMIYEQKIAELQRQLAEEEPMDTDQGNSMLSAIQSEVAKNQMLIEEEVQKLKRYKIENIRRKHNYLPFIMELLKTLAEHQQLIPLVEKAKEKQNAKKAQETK
Assay: inhibitors of human UCH37 deubiquitinase, primary screen, biochemical, Ub-AMC cleavage, fluorescence (AID 588478);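 further: 0% = compound-free wells with enzyme and 100% = wells lacking proteasome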
Details: purified proteasome/UCH37, Ub-AMC cleavage fluorescence; active compounds read high; concentration not given here
Hit rate of the full screen: of about 330,000 compounds, about 1,100 (0.33%) were called active. The sample as a whole holds a higher share of actives than the screen did.
endpoint.name: inhibition (%)

structure_smiles=COc1ccc2ccccc2c1C=NNC(=S)Nc1cc(S(=O)(=O)N2CCOCC2)ccc1N1CCOCC1 endpoint_result=-8.36
structure_smiles=O=C1NNC(c2ccccc2)=N/C1=C\c1ccc(Cl)cc1 endpoint_result=21.1
structure_smiles=O=C(c1ccc(-n2cnnn2)cc1)N1CCN(C(c2ccccc2)c2ccccc2)CC1 endpoint_result=26.6
structure_smiles=Cc1nn(-c2ccccc2)c(C)c1C=NNC(=O)c1cccs1 endpoint_result=2.82
structure_smiles=O=C(CNC(=O)c1ccncc1)NN=Cc1cccc([N+](=O)[O-])c1 endpoint_result=1.21
structure_smiles=Cn1ccc(=Nc2ccc(NC(=O)c3ccc(N=c4ccn(C)c5ccc([N+](=O)[O-])cc45)cc3)cc2)cc1 endpoint_result=27.5
structure_smiles=Cn1nnnc1SCC(=O)N1CCN(C(c2ccccc2)c2ccccc2)CC1 endpoint_result=2.55
structure_smiles=Cc1ccc(C=NN2CCN(Cc3ccccc3)CC2)o1 endpoint_result=1.82
structure_smiles=N#C/C(=C/c1ccc(N2CCCCC2)o1)C(=O)NCCc1c[nH]c2ccccc12 endpoint_result=11.5
structure_smiles=COc1cc(NS(=O)(=O)c2ccc(NC(=O)c3ccc([N+](=O)[O-])cc3)cc2)ncn1 endpoint_result=4.65

Numbers sourced from PubChem BioAssay AID588478.
